Consider the following compounds; for each one, report its pKd.
Reminder that pKd is minus the log10 of a molar concentration.

Task item: Answer with pKd of Nc1nc2ncc(CNCCN3CCC(SC[C@H]4O[C@@H](n5cnc6c(N)ncnc65)C(O)C4O)CC3)nc2c(=O)[nH]1 (stereo in doubt) [Compound 13] measured for HPPK (Escherichia coli).
Reply: 6.23

Task item: Provide the reported pKd (system: HPPK (Escherichia coli)) for CC1(C)Nc2nc(N)[nH]c(=O)c2N=C1C(=O)NCCN1CCC(SC[C@H]2O[C@@H](n3cnc4c(N)ncnc43)C(O)C2O)CC1 (stereo in doubt) [Compound 28]
Sequence (P26281 whole entry): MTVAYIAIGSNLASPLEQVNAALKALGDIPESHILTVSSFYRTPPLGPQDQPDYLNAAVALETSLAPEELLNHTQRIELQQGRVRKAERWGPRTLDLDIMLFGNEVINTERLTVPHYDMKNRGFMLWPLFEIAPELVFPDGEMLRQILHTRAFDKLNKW
Reply: 6.48
